assay: yeast display, Sf9 membrane polyspecificity reagent, FACS + sequencing; frameworks hold sequencing errors
TEST_READOUT: polyreactivity (PSR sort gate)

ORDERED_RESIDUES | TEST_READOUT | RESULT
QVQLVESGGGLVQAGGSLRLSCAASGFTLYPYAMGRYRKAPGKERELVAAISSSSGSTYYADSVKGRFTISRDNAKNTVYVQMNSLKPDDTAVYYCARDSGYYWYYRYGYWGQGTQVTVSS | polyreactivity (PSR sort gate) | high polyreactivity
QVQLVESGGGLVQAVGSLRLSCADSGRLLSYYDMGWYRQAPGKVRELVARLGGTYYADSVKGRFTISRYIAKNTVYLQMNSLKPEDTAVYYCAAEYGYDFLRSYHEYGYWGQGTQVTVSS | polyreactivity (PSR sort gate) | low polyreactivity
QVQLVESGGGLVQAGGSLRLSCAASGGTFFAYAMGWYRQAPGERELVAAISWSGDSTYYADSVKGRFTISRDNAKNTVYLQMNSLKPEDTAVYYCAADYGFEYYYWGQGTQVTVSS | polyreactivity (PSR sort gate) | high polyreactivity
QVQLVESGGGLVQAGGSLRLSCAASGNISYTYVMGWSRQAPGKHRELVAAITWSTGSTYYADSVKGRFTISRDNAKNTVYLQMNSLKPEDTAVYYCAVDGGEFSSYGYWGQGTQVTVSS | polyreactivity (PSR sort gate) | low polyreactivity
QVQLVESGGGLVQAGGSLRLSCAASGRIFSRYVMGWYRQAPGKERELVAAISWNGGSTYYADSVKGRFRISRDNAKNTVYFQMNSLIPEDTAVYYCAARVRVTGTYYTKYDYWGQGTQVTVSS | polyreactivity (PSR sort gate) | high polyreactivity
